system: RXF 393; assay: NCI tumour cell line growth inhibition, 48 h
The source made the active and inactive calls. Rule as the data show it: active = GI50 up to about 1.1 µM and inactive = higher.
Hi! Could you answer with just one of these? 1 (active), -1 (inactive)

• CCc1c(C)c(C#N)c(=S)n(C2OC(COC(C)=O)C(OC(C)=O)C(OC(C)=O)C2OC(C)=O)c1-c1ccccc1 (stereo not given) = -1
• CN(C)CCNC(=O)c1cccc2c1Nc1ccccc1S2 = -1
• Cn1nc(S(N)(=O)=O)s/c1=N/S(=O)(=O)c1ccc(N)cc1 = -1
• Cc1nnc2n1N=C(c1ccccc1)/C(=C/c1ccc(-c3ccc(Cl)cc3)o1)S2 = -1

Here's the next entry for you.
query: Please state the recorded outcome for this molecule: "Clc1ccc(COc2ccccc2/C=N/c2c(-c3ccco3)nc3ccccn23)c(Cl)c1"
result: -1

----------
GI50: recorded values
tested on: SNB-19; test: NCI tumour cell line growth inhibition, 48 h
Activity calls are given as the source filed them. No stated cut-off is given here; in the data, active = GI50 up to about 1.1 µM and inactive = higher.

query: Notebook: pull reported GI50 for SNB-19, entry "Cc1cnc2sn(-c3ccc(Oc4ccccc4)cc3)c(=O)c2c1"
result: 19.7 µM (inactive)

query: Notebook: pull reported GI50 for SNB-19, entry CC(=O)C1(O)CC2(c3ccccc3)C(=O)C1(c1ccccc1)C(c1ccccc1)=C2c1ccccc1 (stereo not given)
result: > 100 µM (inactive)

query: Notebook: pull reported GI50 for SNB-19, entry "CC(=O)N/N=C1\NC(=O)C[C@H]2[C@@H]3CC=C4C[C@@H](OC(C)=O)CC[C@]4(C)[C@H]3CC[C@]12C"
result: 17.4 µM (inactive)

query: Notebook: pull reported GI50 for SNB-19, entry "C/C(=N\c1c2ccccc2nc2ccccc12)N(C)C"
result: 34 µM (inactive)

query: Notebook: pull reported GI50 for SNB-19, entry "Cc1nnc2n1N=C(c1ccccc1)/C(=C/c1ccc(-c3ccc(Cl)cc3)o1)S2"
result: 16.6 µM (inactive)

----------
tested on: A498; test: NCI tumour cell line growth inhibition, 48 h
The source made the active and inactive calls. Cut-off read from the data, not from the text of the source: active = GI50 up to about 1.1 µM and inactive = higher.
RESULT_TYPE: GI50

* O=C(O)C(Cc1c[nH]cn1)N1C(=O)c2ccccc2C1=O (stereo not given) | > 100 µM (inactive)

query: So what's the measured GI50 for this one? "Clc1cc(OCc2nn3c(Cc4ccccc4)nnc3s2)ccc1OCc1nn2c(Cc3ccccc3)nnc2s1"
result: 29.1 µM (inactive)

query: So what's the measured GI50 for this one? "O=c1[nH]c(=O)n(CCOc2ccccc2)cc1Nc1ccccc1"
result: > 100 µM (inactive)

query: So what's the measured GI50 for this one? "COc1ccc(Nc2nc3ccc(C(F)(F)F)cc3nc2C(=O)O)cc1"
result: 16.7 µM (inactive)

query: So what's the measured GI50 for this one? "O=[N+]([O-])c1cc(Br)cc2cc(Cl)cnc12"
result: 75.7 µM (inactive)

query: So what's the measured GI50 for this one? COC1(O)C(=O)c2ccccc2OC1(OC)c1ccccc1 (stereo not given)
result: > 100 µM (inactive)

query: So what's the measured GI50 for this one? O=S(=O)(CC1=NC2C=CC=CC2N=C1)NCc1ccccc1 (stereo not given)
result: > 100 µM (inactive)

query: So what's the measured GI50 for this one? "CC(C)(C)c1cc[n+](C[n+]2ccc(C(C)(C)C)cc2)cc1"
result: 53.6 µM (inactive)

query: So what's the measured GI50 for this one? CCc1c(C)c(C#N)c(=S)n(C2OC(COC(C)=O)C(OC(C)=O)C(OC(C)=O)C2OC(C)=O)c1-c1ccccc1 (stereo not given)
result: 14.6 µM (inactive)

query: So what's the measured GI50 for this one? "COc1cc(S(=O)(=O)N/N=C/c2cc(Br)c(O)c(OC)c2)c(OC)cc1NC(C)=O"
result: > 100 µM (inactive)
